Data provenance is patent US9012640B2.

Target: Recombinant human dopaminergic receptor D2L (Homo sapiens, UniProt P14416)
Sequence (P14416 whole entry): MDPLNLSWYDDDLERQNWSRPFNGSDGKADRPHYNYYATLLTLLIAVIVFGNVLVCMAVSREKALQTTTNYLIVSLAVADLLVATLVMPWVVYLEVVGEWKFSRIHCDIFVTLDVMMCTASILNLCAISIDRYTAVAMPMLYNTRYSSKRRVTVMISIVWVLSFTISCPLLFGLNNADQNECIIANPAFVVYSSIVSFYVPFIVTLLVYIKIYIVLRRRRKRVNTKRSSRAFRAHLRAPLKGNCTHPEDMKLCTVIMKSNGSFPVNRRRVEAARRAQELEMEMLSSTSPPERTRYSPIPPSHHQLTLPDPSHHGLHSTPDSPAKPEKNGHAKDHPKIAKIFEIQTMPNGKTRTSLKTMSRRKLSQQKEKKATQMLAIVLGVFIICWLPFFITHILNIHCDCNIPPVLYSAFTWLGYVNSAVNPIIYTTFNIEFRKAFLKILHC
Assay: GTPγS functional assay
Settings: read-out: EC50, agonist activity with the D2L receptor
Description: Recombinant human dopaminergic receptor D1, D2L, and D4 and serotonin receptor 5-HT1B and 5-HTID activity was assayed using a GTPΥS functional assay with Compound 1 at concentrations between 0.01 nM and 10,000 nM.

>  <compound>
C=CCN1C[C@H](C(=O)N(CCCN(C)C)C(=O)NCC)C[C@@H]2c3cccc4[nH]c(C(F)(F)F)c(c34)C[C@H]21 [Compound 1]

>  <target-desc>
Recombinant human dopaminergic receptor D2L (Homo sapiens, UniProt P14416)

>  <EC50>
12.6 nM

$$$$

---

Target: Recombinant human serotonin receptor 5-HT2B (Homo sapiens)
Construct: expressed in transfected cells; host or cells: CHO-K1 (coexpressing mitochondrial apoaequorin)
Sequence (P41595 whole entry): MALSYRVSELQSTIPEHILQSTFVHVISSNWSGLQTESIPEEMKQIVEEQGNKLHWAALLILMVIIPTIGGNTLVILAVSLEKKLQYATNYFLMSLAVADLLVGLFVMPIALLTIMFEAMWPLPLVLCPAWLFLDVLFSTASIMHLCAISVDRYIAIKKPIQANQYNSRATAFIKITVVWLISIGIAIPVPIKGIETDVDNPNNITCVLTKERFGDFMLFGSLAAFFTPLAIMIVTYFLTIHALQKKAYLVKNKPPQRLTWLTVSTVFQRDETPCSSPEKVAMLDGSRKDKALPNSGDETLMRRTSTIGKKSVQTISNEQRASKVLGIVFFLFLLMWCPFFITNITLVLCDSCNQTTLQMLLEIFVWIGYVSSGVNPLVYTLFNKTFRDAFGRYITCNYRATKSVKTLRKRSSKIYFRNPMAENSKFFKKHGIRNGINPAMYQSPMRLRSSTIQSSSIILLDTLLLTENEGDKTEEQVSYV
Assay: Aequorin assay, receptor agonist/antagonist activity, CHO-K1 cells
Type: cell-based
Conditions: agonist activity, Aequorin assay, CHO-K1; read-out: EC50 on 5-HT2B receptors

>  <structure-string>
C=CCN1C[C@H](C(=O)N(CCCN(C)C)C(=O)NCC)C[C@@H]2c3cccc4[nH]c(C(F)(F)F)c(c34)C[C@H]21

>  <target-desc>
Recombinant human serotonin receptor 5-HT2B (Homo sapiens)

>  <EC50, µM>
6.05

$$$$

---

Target: Recombinant human serotonin receptor 5-HT2A (Homo sapiens, UniProt P28223)
Construct: expressed in transfected cells; host or cells: CHO-K1 (coexpressing mitochondrial apoaequorin)
Experiment: Aequorin assay, receptor agonist/antagonist activity, CHO-K1 cells
Type: cell-based
Conditions: agonist activity, Aequorin assay, CHO-K1; read-out: EC50 on 5-HT2A receptors

>  <compound>
C=CCN1C[C@H](C(=O)N(CCCN(C)C)C(=O)NCC)C[C@@H]2c3cccc4[nH]c(C(F)(F)F)c(c34)C[C@H]21 [Compound 1]

>  <readout-units>
nM

>  <EC50>
946

$$$$

---

Molecular target: UniProt:P28221
Sequence (P28221 whole entry): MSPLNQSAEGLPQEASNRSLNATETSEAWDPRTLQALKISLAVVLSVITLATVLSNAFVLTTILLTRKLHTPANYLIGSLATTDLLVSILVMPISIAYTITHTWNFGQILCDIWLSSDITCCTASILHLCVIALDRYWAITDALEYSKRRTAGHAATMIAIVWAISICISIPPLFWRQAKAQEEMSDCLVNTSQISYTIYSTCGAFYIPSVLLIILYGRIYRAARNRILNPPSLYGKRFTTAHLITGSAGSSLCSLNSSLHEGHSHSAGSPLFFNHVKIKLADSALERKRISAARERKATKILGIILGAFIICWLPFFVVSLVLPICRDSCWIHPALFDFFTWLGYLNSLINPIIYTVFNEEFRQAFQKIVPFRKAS
Assay: GTPγS functional assay
Format: biochemical
Conditions: GTPγS; read-out: EC50, agonist on 5-HT1D receptors
measure-name: EC50 (nM)

>  <compound>
C=CCN1C[C@H](C(=O)N(CCCN(C)C)C(=O)NCC)C[C@@H]2c3cccc4[nH]c(C(F)(F)F)c(c34)C[C@H]21 [Compound 1]

>  <target-desc>
UniProt:P28221

>  <measured-number>
263

$$$$
